system: Pseudomonas aeruginosa ATCC 27853; assay: ≥ marks a high value that may be exact or a test limit, other limits are often not marked, values filed in µg/mL are converted to µM
Listed here are compounds together with their documented MIC.

Example compounds with recorded MIC:
[[record]]
input_smiles = "NC(=O)[C@H](Cc1c[nH]c2ccccc12)NC(=O)[C@H](CCCN=C(N)N)NC(=O)[C@H](CS)NC(=O)[C@H](Cc1ccccc1)NC(=O)[C@H](CCCN=C(N)N)NC(=O)[C@H](CCCN=C(N)N)NC(=O)[C@H](CCCN=C(N)N)NC(=O)[C@H](CS)NC(=O)[C@H](CCCN=C(N)N)NC(=O)[C@@H](N)Cc1c[nH]c2ccccc12"
experimental_value = "> 128 µM"

[[record]]
input_smiles = "CC[C@H](C)[C@H](NC(=O)[C@@H](N)Cc1ccc(O)cc1)C(=O)N[C@@H](CCCCN)C(=O)N[C@@H](CC(C)C)C(=O)N[C@@H](CC(C)C)C(=O)N[C@@H](CCCCN)C(=O)N[C@@H](CCC(=O)O)C(N)=O"
experimental_value = "> 100 µM"


Request: Hi! What's the reported MIC for CC(C)[C@H](NC(=O)[C@H](CC(=O)O)NC(=O)[C@H](CO)NC(=O)[C@H](CCCCN)NC(=O)CNC(=O)[C@H](CO)NC(=O)[C@H](CO)NC(=O)[C@H](Cc1cnc[nH]1)NC(=O)[C@@H](N)CCC(N)=O)C(=O)N[C@@H](CCCN=C(N)N)C(=O)N[C@@H](CCCN=C(N)N)C(=O)N[C@@H](Cc1c[nH]c2ccccc12)C(N)=O on Pseudomonas aeruginosa ATCC 27853?
Response: > 100 µM
